Cited source for all entries: ChEMBL document CHEMBL1201862

- System: ACHN
- protocol summary: NCI tumour cell line growth inhibition, 48 h
Activity calls are given as the source filed them. Cut-off read from the data, not from the text of the source: active = GI50 up to about 1.1 µM and inactive = higher.
Labels: active, inactive

{"columns": ["compound", "label"],
 "data": [
  ["C[C@H]1CC(=O)[C@@]2(O)C#C/C=C\\C#C[C@@H]3Nc4c(cc(O)c5c4C(=O)c4ccccc4C5=O)[C@]24O[C@]314", "active"],
  ["CCOP(=O)(OCC)/C(C#N)=C/c1cn(C)cn1", "inactive"],
  ["C[N+](C)(C)CC(=O)N/N=C(/Cc1nc2ccc([N+](=O)[O-])cc2nc1O)C(=O)Nc1cc(C(F)(F)F)ccc1Cl", "inactive"],
  ["CC1CCc2sc3nc4n(c(=O)c3c2C1)CC(C)S4 (centres undefined)", "inactive"],
  ["O=C1OC(=O)C([Se]c2ccccc2)=C1[Se]c1ccccc1", "inactive"],
  ["CC(=O)N(CC(=O)C(=O)NNc1ccoc1)c1ccc(Cl)cc1", "inactive"],
  ["O=C1c2ccccc2CC1C1(O)C(=O)Nc2ccccc21 (centres undefined)", "inactive"],
  ["Cc1cc(O)c2c3c1C(=O)Oc1c(CO)c(O)c(C(=O)O)c(c1O3)C=NN=Cc1c3c(c(CO)c(O)c1C(=O)O)OC(=O)c1c(C)cc(O)c(c1O3)C=NN=C2", "inactive"],
  ["CC(C(=O)c1ccc(Cl)cc1)C1OC(=O)C(Cl)=C1Cl (centres undefined)", "inactive"],
  ["O=C(Cc1nc2c3c(ccc2nc1O)C(=O)c1ccccc1C3=O)C(=O)Nc1ccccc1[N+](=O)[O-]", "inactive"],
  ["CCCC(C)C[C@@H](C)CC(C)/C=C(\\C)c1oc(=O)c(C)c(O)c1C.CC[C@@H](C)C[C@@H](C)C[C@@H](C)/C=C(\\C)c1oc(=O)c(C)c(O)c1C (some centres undefined)", "inactive"],
  ["COC(=O)c1cc2c3c(c1)Oc1cc(C(=O)OC)cc4c1C3c1c(cc(C(=O)OC)cc1O4)O2", "inactive"],
  ["O=[N+]([O-])c1cccc2nnccc12", "inactive"],
  ["CCN(CC)C(=S)SS(=O)(=O)c1ccccc1[N+](=O)[O-]", "inactive"],
  ["C/C(=N/N)c1ccc2[nH]c3c(C)cc([N+](=O)[O-])c(C)c3c2c1", "inactive"],
  ["c1ccc2c(c1)nc1n2CNC1", "inactive"],
  ["NC(Cc1ccc(S(=O)(=O)O)cc1)C(=O)NC(Cc1ccc(S(=O)(=O)O)cc1)C(=O)NC(Cc1ccc(S(=O)(=O)O)cc1)C(=O)O (centres undefined)", "inactive"],
  ["O=C(c1ccccc1)C1N=NCC1c1ccc([N+](=O)[O-])cc1 (centres undefined)", "inactive"],
  ["O=C(C/C(=N/O)c1cc(-c2ccccc2)no1)c1ccccc1", "inactive"]
]}

---

Catalogue of GI50 readings, one per entry.
- Test system: HOP-18
- protocol summary: NCI tumour cell line growth inhibition, 48 h
Calls of active or inactive are those of the source. No stated cut-off is given here; in the data, active = GI50 up to about 1.1 µM and inactive = higher.

{"columns": ["molecule", "GI50"],
 "data": [
  ["Cc1nc(-n2nc(-c3ccccc3)cc2-c2ccccc2)sc1C(=O)/C=C/c1ccc([N+](=O)[O-])cc1", "> 100 µM (inactive)"],
  ["CC(C)(C)NNc1c([N+](=O)[O-])cnn(-c2ccccc2)c1=O", "16.7 µM (inactive)"],
  ["Nc1nc(N)c2cc(CNc3ccc(C(=O)NC(CC(=O)O)C(=O)O)c(Cl)c3)ccc2n1 (stereo unspecified)", "> 100 µM (inactive)"],
  ["S=P1(Sc2ccccc2)Oc2ccc3ccccc3c2-c2c(ccc3ccccc23)O1", "> 92.5 µM (inactive)"],
  ["CC12CCC3(OCCO3)C(OC(=O)c3ccccc3)=C1CCC21OCCO1 (stereo unspecified)", "> 100 µM (inactive)"],
  ["N#Cc1c(-c2ccc(Cl)c(Cl)c2)c(-c2ccc(Cl)c(Cl)c2)nn(CC(=O)O)c1=O", "64.3 µM (inactive)"],
  ["O=C(O)CCC1c2[nH]c3ccccc3c2CCN1Cc1ccccc1 (stereo unspecified)", "> 100 µM (inactive)"],
  ["COC(=O)NC1C(C)OC(OC2C/C=C(/C)C3C=CC4C(OC5CC(OC6CC(O)C(OC7CC(O)C(OC)C(C)O7)C(C)O6)C(O)C(C)O5)C(C)CC(C)C4C3(C)C(=O)C3=C(O)C4(CC(C)C(CO)=CC4/C=C\\2C)OC3=O)CC1(C)[N+](=O)[O-] (stereo unspecified)", "15.1 µM (inactive)"],
  ["O=C(NC(Cc1ccc(Br)cc1)C(=O)O)c1ccc(I)cc1 (stereo unspecified)", "> 100 µM (inactive)"],
  ["Cc1cc(Cl)ccc1NC(=O)/C(=N\\NC(C)(C)C)C(C#N)c1nc(-c2ccc([N+](=O)[O-])cc2)cs1 (stereo unspecified)", "> 100 µM (inactive)"],
  ["CCCCCCCCCCCCCCCCCCCCCC(=O)Nc1ccn(C2OC(CO)C(O)C2O)c(=O)n1 (stereo unspecified)", "> 100 µM (inactive)"],
  ["CCC(CC)n1cc(C(=O)NC(=O)NCCCCCOC(=O)CCCCCCCCCCC(=O)OCCCCCNC(=O)NC(=O)c2cn(C(CC)CC)c(=O)[nH]c2=O)c(=O)[nH]c1=O", "> 100 µM (inactive)"],
  ["CC(C(=O)c1ccc(Cl)cc1)C1OC(=O)C(Cl)=C1Cl (stereo unspecified)", "50.4 µM (inactive)"],
  ["CCCCCCN(N)C(=O)CC#N", "> 100 µM (inactive)"],
  ["CC(C)(C)[C@H]1CC[C@@](O)(c2ccccc2)CC1.CC(C)(C)[C@H]1CC[C@](O)(c2ccccc2)CC1", "37.8 µM (inactive)"],
  ["CO[C@H](c1ccccc1)[C@H](C)N(C)c1ccc2ccccc2c1C1=NC(C)(C)CO1", "17.1 µM (inactive)"]
]}
